B1: 1ZHC (parent)
chain: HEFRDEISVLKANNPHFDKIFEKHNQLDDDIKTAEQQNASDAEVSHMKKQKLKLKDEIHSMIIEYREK

Variants of: B1
assay_summary: folding stability dG (cDNA display proteolysis); higher = more stable
test_conditions: PBS, room temperature
quantity: folding stability dG (kcal/mol)
Give just the number in kcal/mol; leave the unit off.

HEFRDMISVLKANNPHFDKIFEKHNQLDDDIKTAEQQNASDAEVSHMKKQKLKLKDEIHSMIIEYREK [E6M] :: 1.46
HEFRDEISVLKANNPHFDKIFEKHNQLDDDIQTAEQQNASDAEVSHMKKQKLKLKDEIHSMIIEYREK [K32Q] :: 0.87
HEFRDEISVLKANNPHFDKIFEKHNQLDDDIKTAEQQNASDAEVSHMEKQKLKLKDEIHSMIIEYREK [K48E] :: -0.818
HEFRDEISVLKANNPHFDKIFEKHNILDDDIKTAEQQNASDAEVSHMKKQKLKLKDEIHSMIIEYREK [Q26I] :: -0.025
HEFRDEISVLKANNPHFDKIFEKHNQYDDDIKTAEQQNASDAEVSHMKKQKLKLKDEIHSMIIEYREK [L27Y] :: -0.311
HEFRDEISVLKANNPHFDKIFEKHQQLDDDIKTAEQQNASDAEVSHMKKQKLKLKDEIHSMIIEYREK [N25Q] :: 1.29
HEFRDEISVLKANNPHFDKIFEKHNQLDDDIKTAEQQNASDAEVSHMKKQKLKLKDEIHSMIDEYREK [I63D] :: -0.032
HEFRDEISVLKANNPHFDKIFEKHNQLDDDIKTAEQQNASDAEVSHMKKQKLKLEDEIHSMIIEYREK [K55E] :: 0.926

query: # folding stability dG lookup, item HEFRDEISVLKANNPHFDKIFEKHNQLDDDDKTAEQQNASDAEVSHMKKQKLKLKDEIHSMIIEYREK [I31D]
result: -0.93

query: # folding stability dG lookup, item HEFRDEISVLKANNPHFDKIFEKHNQLDDDIKVAEQQNASDAEVSHMKKQKLKLKDEIHSMIIEYREK [T33V]
result: 1.3

query: # folding stability dG lookup, item HEFRDEISVLKANNPHFDKIFEKHNQLDDDIKTAESQNASDAEVSHMKKQKLKLKDEIHSMIIEYREK [Q36S]
result: 1.17

query: # folding stability dG lookup, item HDFRDEISVLKANNPHFDKIFEKHNQLDDDIKTAEQQNASDAEVSHMKKQKLKLKDEIHSMIIEYREK [E2D]
result: 0.711

query: # folding stability dG lookup, item HEFRDEISVLKANNPHFDKIFEKHNQLDDDIKTAEQQNASDAEVSHMKKQKLYLKDEIHSMIIEYREK [K53Y]
result: 0.301

query: # folding stability dG lookup, item HEFRDEISVLKANNPHFDKIFEKHNQLDDVIKTAEQQNASDAEVSHMKKQKLKLKDEIHSMIIEYREK [D30V]
result: -0.277
